Test system: Fibroblast
Test: Incucyte cell viability with human fibroblast; also: filed as whole numbers so only -1 and 0 and 1 occur
Format: toxicity, cell-based
Details: 12 h, 10 µM, compound concentration 10 uM, replicate number 1, timepoint 12 hours
ENDPOINT: Growth Rate
One number for each entry.

# count of solved cases: 5
What measured Growth Rate goes with O=C1c2ccc(Nc3ccc(F)cc3F)cc2CCc2ccc(OC[C@H](O)CO)cc21 [Skepinone-L] ?
0

Please report the recorded Growth Rate for COc1cc(Nc2ccnc3ccc(Br)cc23)cc(OC)c1OC .
0

What value of measured Growth Rate is listed for Oc1cccc(-c2nc(N3CCOCC3)c3oc4ncccc4c3n2)c1 [PI-103] ?
0

Any idea what Growth Rate was measured for COc1ccc(CCc2nc3cc(-c4c(C)noc4C)ccc3n2C[C@H](C)N2CCOCC2)cc1Cl ?
1

// returns reported Growth Rate for input CC(C)NCC(O)COc1cccc2ccccc12.Cl (stereo not drawn) [PROPRANOLOL HYDROCHLORIDE]
1

Parameter requested: Growth Rate. Apply to each item below.
1. CC(C)(O)c1cncc(-c2nc3ccc(F)cc3n2C2CC2)c1 [MSD-CYP11B2]
2. CCC(=O)NC1Cc2ccccc2C(c2ccccc2)C1 (stereo not drawn)

[1, 0]
